# assay_target: T1, HEK-TROP2 Δ27-36
# T1 construct: also called TROP2 delta 27-36
# T1 membrane protein on transfected HEK cells: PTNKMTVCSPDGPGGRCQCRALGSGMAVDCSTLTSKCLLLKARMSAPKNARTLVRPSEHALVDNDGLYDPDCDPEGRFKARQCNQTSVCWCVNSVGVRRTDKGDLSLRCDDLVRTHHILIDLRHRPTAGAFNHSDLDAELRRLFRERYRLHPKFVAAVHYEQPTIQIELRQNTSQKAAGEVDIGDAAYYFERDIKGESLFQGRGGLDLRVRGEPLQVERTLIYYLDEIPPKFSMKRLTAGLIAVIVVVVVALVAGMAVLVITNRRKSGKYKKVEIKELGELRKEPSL
# experimental_protocol: flow cytometry, 100 nM antibody, transiently transfected HEK cells, APC anti-human Fc

{"columns": ["binder", "binding result"],
 "data": [
  ["KD002 (antibody, human IgG1, V domains shown, also called anti-TROP2 sdAb KD002) VH: QVQLQESGGGMVQVGGSLRLSCAASGFPFSSADMSWVRQAPGKGPEWVSYINADGSKTYYPDSVKGRFTISRDNAKNTLYLLMNNLKPEDTALYRCARAKLTDTHYVEDYWGQGTQVTVSS", "binds"],
  ["KD001 (antibody, human IgG1, V domains shown, also called anti-TROP2 sdAb KD001) VH: QVQLQESGGGMVHPGGSLRLSCAASGFTFSGSDMSWVRQAPGKGPEWVSYITSGGTTYYPDSVKGRFTISRDNAKNTLYLQMNSLTPDDTALYRCAKARLTDSHYVEDAWGQGTQVTVSS", "binds"],
  ["KD005 (antibody, human IgG1, V domains shown, also called anti-TROP2 sdAb KD005) VH: QVQLQESGGGLVEAGGSLRLSCAASGFTFSGSDMSWVRQAPGKGPEWVSYITSGGTTYYPDSVKGRFTISRDNAKNTLYLQMNSLKPDDTALYRCAKSRLTDSHYVEDAWGQGTQVTVSS", "binds"]
]}
